For each entry below, report its viability, T/C value.
Test system: 885724-159-R-J1-PDC complex spheroid viability;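 further: spheroids exposed to compounds for 7 days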
experiment.description: Anticancer human tumor 885724-159-R-J1-PDC patient-derived pancreatic adenocarcinoma cell line growth inhibition [POLQ]
condition.info: second compound 0.316 µM; first compound 0.000316 µM; active compounds read low
One number for each entry, in %.

These recorded examples may help you get a feel for the data.
>>> recorded_measurement("CC[C@@]1(O)C(=O)OCc2c1cc1n(c2=O)Cc2cc3c(CN(C)C)c(O)ccc3nc2-1 + Nc1ccc(C#CCN(C(=O)Cc2ncc(C(F)(F)F)cc2C(F)(F)F)c2ccc(F)cc2)nn1")
96.7
>>> recorded_measurement("Cn1ncnc1[C@H]1c2n[nH]c(=O)c3cc(F)cc(c23)N[C@@H]1c1ccc(F)cc1 + COC1C(OC(N)=O)C(O)C(Oc2ccc3c(O)c(NC(=O)c4ccc(O)c(CC=C(C)C)c4)c(=O)oc3c2C)OC1(C)C")
113

Proceed to the following item.
[in] Which measured viability, T/C value corresponds to Cn1ncnc1[C@H]1c2n[nH]c(=O)c3cc(F)cc(c23)N[C@@H]1c1ccc(F)cc1 + Cc1cccc(N(C)C(=O)C2C(O)CCN2c2nc(C)cc(C(F)(F)F)c2C#N)c1 ?
[out] 112

Values were extracted from PubChem BioAssay AID1963832.
